target.entity: human orexin type 2 receptor (Homo sapiens, UniProt O43614)
Construct: expressed in transfected cells
Sequence (O43614 whole entry): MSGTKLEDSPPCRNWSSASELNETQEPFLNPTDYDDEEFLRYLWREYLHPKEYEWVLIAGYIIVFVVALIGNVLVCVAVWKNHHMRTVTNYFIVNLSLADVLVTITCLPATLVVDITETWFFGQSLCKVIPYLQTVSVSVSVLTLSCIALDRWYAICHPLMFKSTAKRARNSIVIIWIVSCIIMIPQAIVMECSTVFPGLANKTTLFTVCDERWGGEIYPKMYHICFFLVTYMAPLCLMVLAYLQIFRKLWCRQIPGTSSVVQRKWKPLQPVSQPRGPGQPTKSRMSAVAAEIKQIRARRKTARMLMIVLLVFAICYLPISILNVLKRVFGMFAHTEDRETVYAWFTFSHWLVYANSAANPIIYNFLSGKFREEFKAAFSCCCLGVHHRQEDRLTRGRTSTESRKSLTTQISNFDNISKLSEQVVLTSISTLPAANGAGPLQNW
assay.info: Measurement of orexin type 2 receptor agonist activity (calcium fluorescence, Fluo-4 AM, FDSS)
Type: cell-based
stated.conditions: test compound 3 μM; CHO cells expressing human OX2 receptor; DMSO = 0%, orexin A (human) = 100%
readout: OX2R agonist activity (3 μM, %)

Cc1cc(-c2c(F)cccc2F)c(C2CC2C(=O)N2CCCC(NS(C)(=O)=O)CC2)cn1 (racemic) [Example 266] | 87
CS(=O)(=O)N[C@@H]1CN(C(=O)[C@@H]2C[C@H]2c2ccccc2-c2c(F)cccc2F)C[C@@H]1F [Example 241] | 103
CC1(C(=O)N2CCCC[C@H](NS(C)(=O)=O)C2)CC1c1ccccc1-c1c(F)cccc1F (stereo partly shown) [Example 274] | 86
O=C(C1CC1c1ccccc1-c1c(F)cccc1F)N1CCC[C@H](NS(=O)(=O)CF)C1 (mixture of isomers) [Example 207] | 101
CC[C@@H]1CN(C(=O)[C@@H]2C[C@@]2(F)c2ccccc2-c2c(F)cccc2F)[C@H]1CNS(C)(=O)=O [Example 381] | 90
O=C(C1CC1c1ccccc1-c1c(F)cccc1F)N1CCCC(NS(=O)(=O)C2CC2)C1 (racemic) [Example 123] | 100
CN(C)S(=O)(=O)NC[C@@H]1CCN1C(=O)[C@@H]1C[C@H]1c1ccccc1-c1c(F)cccc1F [Example 259] | 98

Origin of measurements: patent US20250250230A1
